- System Under Test: Adenosine receptor A2a (Rattus norvegicus, UniProt P30543)
- Sequence (P30543 whole entry): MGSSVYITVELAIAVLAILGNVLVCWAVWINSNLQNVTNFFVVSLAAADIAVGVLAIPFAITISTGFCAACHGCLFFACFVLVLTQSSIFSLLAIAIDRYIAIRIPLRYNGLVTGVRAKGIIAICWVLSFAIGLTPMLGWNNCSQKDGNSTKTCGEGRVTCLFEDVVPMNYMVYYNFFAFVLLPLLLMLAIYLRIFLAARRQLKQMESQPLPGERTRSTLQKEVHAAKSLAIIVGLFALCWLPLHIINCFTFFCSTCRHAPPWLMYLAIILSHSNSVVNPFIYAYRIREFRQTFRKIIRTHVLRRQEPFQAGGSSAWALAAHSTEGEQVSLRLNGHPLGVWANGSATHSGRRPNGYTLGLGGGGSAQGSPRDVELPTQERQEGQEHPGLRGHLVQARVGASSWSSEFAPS
- Experiment Summary: Displacement of [3H]ZM241385 from adenosine A2A receptor in rat brain membrane
- Type: cell membranes
Measurement Type: Ki

Some compounds with known Ki results, for comparison:
{"Compound": "Nc1nc(NC[C@H]2CC[C@@H]3CN(c4ncccn4)CCN3C2)nc2nc(-c3ccco3)nn12 (racemic)", "Ki": "230 nM (antagonist)"}
{"Compound": "Nc1nc(N2CCNCC2)nc2nc(-c3ccco3)nn12", "Ki": "> 5000 nM"}
{"Compound": "NC[C@H]1CC[C@H]2CN(c3cc4nc(-c5ccco5)nn4c(N)n3)CCN2C1", "Ki": "56 nM (antagonist)"}
{"Compound": "Nc1nc(N2CCN3C[C@@H](CN(Cc4ccccn4)Cc4ccccn4)CC[C@H]3C2)nc2nc(-c3ccco3)nn12", "Ki": "9 nM (antagonist)"}
{"Compound": "Nc1cc(N2CCN3C[C@H](CO)CC[C@H]3C2)nc2nc(-c3ccco3)nn12 (racemic)", "Ki": "860 nM (antagonist)"}
{"Compound": "Nc1nc(N2CCN3C[C@@H](COc4cccc5cnccc45)CC[C@H]3C2)nc2nc(-c3ccco3)nn12 (racemic)", "Ki": "6 nM (antagonist)"}

Read the next record carefully.
Name the recorded Ki for Nc1cc(N2CCN3[C@@H](COc4cccnc4)CCC[C@H]3C2)nc2nc(-c3ccco3)nn12 (racemic) . 80 nM (antagonist)

====

Ki values for the molecules below.
- System Under Test: Adenosine receptor A1 (Rattus norvegicus)
- Sequence (P25099 whole entry): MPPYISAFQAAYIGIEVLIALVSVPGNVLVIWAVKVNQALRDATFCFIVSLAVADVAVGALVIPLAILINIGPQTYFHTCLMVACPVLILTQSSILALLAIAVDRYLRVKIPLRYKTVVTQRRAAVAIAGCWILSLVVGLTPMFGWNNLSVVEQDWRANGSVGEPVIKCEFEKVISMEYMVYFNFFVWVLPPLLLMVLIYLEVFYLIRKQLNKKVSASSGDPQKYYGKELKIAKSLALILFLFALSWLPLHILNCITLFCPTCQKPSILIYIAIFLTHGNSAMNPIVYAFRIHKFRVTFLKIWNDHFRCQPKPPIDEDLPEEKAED
- Experiment Summary: Displacement of [3h]DPCPX from adenosine A receptor in rat cerebral cortex membrane

{"Molecule": "Nc1nc(NC[C@H]2CCCN2Cc2c(F)cccc2F)nc2nc(-c3ccco3)nn12", "System Under Test": "Adenosine receptor A1 (Rattus norvegicus)", "Result": "427 nM (antagonist)"}
{"Molecule": "COc1ccc(OC[C@@H]2CC[C@H]3CN(c4nc(N)n5nc(-c6ccco6)nc5n4)CCN3C2)cc1 (racemic)", "System Under Test": "Adenosine receptor A1 (Rattus norvegicus)", "Result": "> 500 nM"}
{"Molecule": "Nc1nc(N2CCN3C[C@H](COc4cccc(F)c4)CC[C@H]3C2)nc2nc(-c3ccco3)nn12 (mixture of isomers)", "System Under Test": "Adenosine receptor A1 (Rattus norvegicus)", "Result": "960 nM (antagonist)"}

Name the recorded Ki for Nc1cc(N2CCN3CCC[C@H]3C2)nc2nc(-c3ccco3)nn12 . > 500 nM

Name the recorded Ki for Nc1cc(N2CCN3C[C@@H](CO)CC[C@H]3C2)nc2nc(-c3ccco3)nn12 (racemic) . > 500 nM

Name the recorded Ki for Nc1nc(NC[C@@H]2CC[C@@H]3CN(c4cc(F)cc(F)c4)CCN3C2)nc2nc(-c3ccco3)nn12 (racemic) . > 500 nM

Name the recorded Ki for Nc1nc(N2CCN3C[C@@H](COc4cc5ccccc5cn4)CC[C@H]3C2)nc2nc(-c3ccco3)nn12 (racemic) . > 1000 nM

Name the recorded Ki for Cn1nc(C(F)(F)F)c(CN2CCN3C[C@@H](CNc4nc(N)n5nc(-c6ccco6)nc5n4)CC[C@@H]3C2)c1Cl (racemic) . > 1000 nM

====

Ki values for the molecules below.
- System Under Test: Adenosine receptor A1 (Rattus norvegicus)

{"Molecule": "Nc1nc(N2CCN3C[C@@H](CNc4ncccn4)CC[C@H]3C2)cc2nc(-c3ccco3)nn12", "Ki": "> 1 µM"}
{"Molecule": "Nc1cc(N2CCN3C[C@H](CO)CC[C@H]3C2)nc2nc(-c3ccco3)nn12 (racemic)", "Ki": "> 1 µM"}
{"Molecule": "Nc1nc(N2CCN3C[C@@H](Cn4cncn4)CC[C@H]3C2)nc2nc(-c3ccco3)nn12 (racemic)", "Ki": "> 0.5 µM"}

Report Ki for Nc1nc(N2CCN3C[C@@H](Cn4ccnc4)CC[C@H]3C2)nc2nc(-c3ccco3)nn12 (racemic) tested on Adenosine receptor A1 (Rattus norvegicus). 1.2 µM

====

- System Under Test: Adenosine receptor A2a (Rattus norvegicus, UniProt P30543)
- Experiment Summary: Displacement of [3H]ZM241385 from adenosine A2A receptor in rat brain membrane
- Type: cell membranes
Measurement Type: Ki

{"Compound": "Nc1nc(N2CCN3C[C@@H](COc4ccncc4)CC[C@H]3C2)nc2nc(-c3ccco3)nn12 (racemic)", "System Under Test": "Adenosine receptor A2a (Rattus norvegicus, UniProt P30543)", "Ki": "25 nM (antagonist)"}
{"Compound": "Nc1nc(N2CCN3CCC[C@@H]3C2)cc2nc(-c3ccco3)nn12", "System Under Test": "Adenosine receptor A2a (Rattus norvegicus, UniProt P30543)", "Ki": "63 nM (antagonist)"}
{"Compound": "Nc1nc(N2CCN3C[C@@H](COc4ncnc5[nH]ncc45)CC[C@@H]3C2)nc2nc(-c3ccco3)nn12 (racemic)", "System Under Test": "Adenosine receptor A2a (Rattus norvegicus, UniProt P30543)", "Ki": "5 nM (antagonist)"}
{"Compound": "Nc1nc(N2CCN3C[C@@H](COc4cccnc4)CC[C@H]3C2)nc2nc(-c3ccco3)nn12 (racemic)", "System Under Test": "Adenosine receptor A2a (Rattus norvegicus, UniProt P30543)", "Ki": "0.3 nM (antagonist)"}

Name the recorded Ki for Nc1nc(N2CCN3C[C@@H](Cn4cncn4)CC[C@H]3C2)nc2nc(-c3ccco3)nn12 (racemic) . 4 nM (antagonist)

Name the recorded Ki for Nc1nc(N2CCN3C[C@@H](COc4ccc(F)cc4)CC[C@H]3C2)nc2nc(-c3ccco3)nn12 (racemic) . 4 nM (antagonist)

Name the recorded Ki for Nc1cc(N2CCN3CCCCC3C2)nc2nc(-c3ccco3)nn12 (racemic) . 38 nM (antagonist)

Name the recorded Ki for Nc1cc(N2CCN3[C@@H](COc4ccc5cccnc5c4)CCC[C@H]3C2)nc2nc(-c3ccco3)nn12 (racemic) . 830 nM (antagonist)

====

- System Under Test: Adenosine receptor A2a (Rattus norvegicus, UniProt P30543)
- Experiment Summary: Displacement of [3H]ZM241385 from adenosine A2A receptor in rat brain membrane
- Assay type: cell membranes
Ki values for the compounds below.

{"Compound": "Nc1nc(N2CCN3C[C@H](CO)CC[C@H]3C2)cc2nc(-c3ccco3)nn12 (racemic)", "Ki": "240 nM (antagonist)"}

Name the recorded Ki for Nc1nc(N2C[C@@H]3CCCN3C[C@@H]2Cc2ccccc2)nc2nc(-c3ccco3)nn12 . 490 nM (antagonist)

Name the recorded Ki for Nc1nc(N2CCN3C[C@@H](Cn4cnnn4)CC[C@H]3C2)nc2nc(-c3ccco3)nn12 (racemic) . 14 nM (antagonist)

====

- Experiment Summary: Metabolic stability in rat liver microsome at 2 uM after 60 mins
- Format: ADME
- Experimental Context: liver microsomes, read-out: Stability
remaining at 1 h, 2 µM values for the molecules below.
Kindly provide the numeric value in % only, without the unit symbol.

Some molecules with known remaining at 1 h, 2 µM results, for comparison:
{"Molecule": "Nc1nc(N2CCN3C[C@@H](COc4cccc(F)c4)CC[C@H]3C2)nc2nc(-c3ccco3)nn12 (racemic)", "Result": 12}
{"Molecule": "Nc1nc(N2CCN3C[C@@H](CO)CC[C@H]3C2)cc2nc(-c3ccco3)nn12 (racemic)", "Result": 85}
{"Molecule": "Nc1nc(N2CCN3CCC[C@@H]3C2)nc2nc(-c3ccco3)nn12", "Result": 61}

Name the recorded remaining at 1 h, 2 µM for Nc1cc(N2CCN3C[C@@H](CO)CC[C@H]3C2)nc2nc(-c3ccco3)nn12 (racemic) . 51

Name the recorded remaining at 1 h, 2 µM for Nc1nc(N2CCN3C[C@@H](COc4ccc5ncccc5c4)CC[C@H]3C2)nc2nc(-c3ccco3)nn12 . 16

Name the recorded remaining at 1 h, 2 µM for Nc1nc(N2CCN3CCC[C@H]3C2)nc2nc(-c3ccco3)nn12 . 36

Name the recorded remaining at 1 h, 2 µM for Nc1nc(NC[C@@H]2CC[C@@H]3CN(c4ncccn4)CCN3C2)nc2nc(-c3ccco3)nn12 (racemic) . 43

Name the recorded remaining at 1 h, 2 µM for Nc1nc(N2CCN3C[C@@H](CO)CC[C@H]3C2)nc2nc(-c3ccco3)nn12 (racemic) . 100
